test: Clearance in CD-1 mouse at 3 mg/kg, iv
Format: ADME, organism-based
test parameters: in vivo
# if measured clearance < 100 mL/min/kg: Met  # else: Not met

smiles input	answer label
C/C(=C\COc1ccccc1Cc1c(C)n[nH]c1-c1ccc(-c2ccco2)cc1)CCC(=O)O	Not met
Cc1cnc(-c2ccc(-c3ccco3)cc2)n1Cc1ccccc1OCCC[C@@H](C)CC(=O)O	Met
Cc1cnc(-c2ccc(OC(F)(F)F)cc2)n1Cc1ccccc1OCCC[C@@H](C)CC(=O)O	Met
Cc1cnc(-c2ccc(-c3ccco3)cc2)n1Cc1ccccc1OCCCCC(C)(C)C(=O)O	Not met
C/C(=C\COc1ccccc1Cn1c(C)cnc1-c1ccc(-c2ccco2)cc1)CCC(=O)O	Not met
C/C(=C\COc1ccccc1Cc1c(C)nnn1-c1ccc(-c2ccco2)cc1)CCC(=O)O	Not met
C/C(=C\COc1ccccc1Cc1c(-c2ccc(-c3ccco3)cc2)ncn1C)CCC(=O)O	Not met
C/C(=C\COc1ccccc1Cn1c(C)cnc1-c1ccc(OC(F)(F)F)cc1)CCC(=O)O	Met
C/C(=C\COc1ccccc1Cc1c(-c2ccc(-c3ccco3)cc2)noc1C)CCC(=O)O	Not met
C/C(=C\COc1ccccc1Cc1c(C)ncn1-c1ccc(-c2ccco2)cc1)CCC(=O)O	Not met
C/C(=C\COc1ccccc1Cc1sc(C)nc1-c1ccc(-c2ccco2)cc1)CCC(=O)O	Met
